Reference source: ChEMBL document CHEMBL1148986

System: Gambusia affinis
Test: Ichthyotoxicity against Gambusia affinis at 10 ppm
Format: organism-based
Details: in vivo
measurement-label: Activity

Asked: Any idea what its Activity is? The compound is CC1(C)CCC[C@]2(C)[C@H]3CC(=O)[C@]4(C)[C@@H]5C(=CC[C@H]4[C@]3(C)CC[C@@H]12)CO[C@H]5O
Given back: Toxic

Asked: Repeat with CC1(C)CCC[C@]2(C)[C@H]3CC(=O)[C@]4(C)[C@@H](C=O)C(C=O)=CC[C@H]4[C@]3(C)CC[C@@H]12
Given back: Toxic
